- assayed_system: T1, hK1 (human tissue kallikrein 1), recombinant (human, UniProt P06870 25-262)
- T1 construct: Expressed in P. pastoris from KLK1 cDNA and purified; enzymatically active; also called KLK1; Recombinant (Pichia) Kallikrein
- assay_name: SPR
readout_name: Kd (nM)

>>> value_measured("M0112-D04 (Fab, V domains shown) VH: EVQLLESGGGLVQPGGSLRLSCAASGFTFSHYVMVWVRQAPGKGLEWVSGIRSSGGVTAYADSVKGRFTISRDNSKNTLYLQMNSLRAEDTAMYYCARVGVWYGMDVWGQGTTVTVSS VL: AQSALTQPLSVSVALGQTARITCGGNNIGSKNVHWYQQKPGQAPVLVIYRDSNRPSGIPERFSGSNSGNTATLTISGAQAGDEADYYCQVWDSSTVFGGGTKLTVLG")
54.2
>>> value_measured("M0131-C08 (Fab, V domains shown) VH: EVQLLESGGGLVQPGGSLRLSCAASGFTFSWYSMTWVRQAPGKGLEWVSSISPSGGATKYADSVKGRFTISRDNSKNTLYLQMNSLRAEDTAVYYCARGGAASLPFDYWGQGTLVTVSS VL: DIQMTQSPSSVSASVGDRVTITCRASQDVLVSFAWYQQRPGTAPKLLIYAASHLHPGVPSRFSASGSGTDFTLTINGLQPEDFATYYCQQARSFPHTFGQGTRLEKKR")
17.7

All values here come from patent US7329737.
